I'd be grateful if you could share measured Chemotaxis IC50 (nM); 1 nM hIP-10; hCXCR3 L1.2 cells for these entries.
MEASUREMENT_TARGET: T1, recombinant human IP-10 (hIP-10) (human, UniProt P02778 22-98)
T1 sequence (looked up): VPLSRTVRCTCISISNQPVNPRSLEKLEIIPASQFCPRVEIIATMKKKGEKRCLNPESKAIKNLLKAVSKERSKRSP
ASSAY_PROCEDURE: cell-based or functional assay
One number for each entry, in nM.

Example entries begin here.
BINDER	READOUT_VALUE
CC21R3P1_H6, scFv format (scFv) QVQLVESGGGVAQSGKSLRLSCAASGFTFSNYGMHWVRQAPGKGLEWLAVISYDGSNRYYADSVKGRFTISRDNSNNTLNLQMSSLRAEDTALYYCAKDAGGPLDYWGKGTLVTVSSQSVLTQLTQPPSVSLAPGQTATITCGGDNIGRKSVHWYQQKPGQAPVLVVYDDTDRPSGIPERFSGSNSGNTATLTISRVEAGDEADYYCQVWDSSIDHSWVFGGGTKLTVL	36
CB1R3P4_D3, scFv format (scFv) QVQLVQFGGGVVQPGRSLRLSCAASGFTFSSYGMHWVRQAPGKGLEWVAVISYDGSIKYYADSVKGRFTISRENAKNSVYLQMDSLRVGDTAVYYCTRAGYSTDWHPDYWGQGTMVTVSSSSELTQDPAVSVALGQTVRITCQGDSLRSYYASWYQQKPGQAPVLAIYGKNNRPSGIPDRFSGSSSGNTASLTITGAQAEDEADYYCNSRDSSGNHVVFGGGTKLTVL	72

Turning now to a further record.
Sample CE7C1R3H8_J9, scFv format (scFv) QVQLVESGGGVVQPGRSLRLSCAASGFTFSTYGMHWVRQAPGKGLEWVAVISYDGGTKYYADSVKGRFTISRDNSMKTLYLQMNSLRTEDTAVYYCAKDLGDLPPGLDYWGQGTMVTVSSQSVLTQPPSASGTPGQRVTISCSGSSSNIGSNTVNWYQQLPGAAPKLLIYTNNQRPSGVPDRFSGSKSGTSASLAISGLQSEDEADYYCAAWDDSSEPRVVFGGGTKVTVL ; Chemotaxis IC50 (nM); 1 nM hIP-10; hCXCR3 L1.2 cells observed: 0.9

// provenance: patent US20100330094A1
